- experiment: self-splicing fitness, log relative to wild type (ln ratio); higher = more splicing; Tetrahymena group I intron in knt gene, E. coli kanamycin selection, DiMSum; sequences stand for … in CUCUCU…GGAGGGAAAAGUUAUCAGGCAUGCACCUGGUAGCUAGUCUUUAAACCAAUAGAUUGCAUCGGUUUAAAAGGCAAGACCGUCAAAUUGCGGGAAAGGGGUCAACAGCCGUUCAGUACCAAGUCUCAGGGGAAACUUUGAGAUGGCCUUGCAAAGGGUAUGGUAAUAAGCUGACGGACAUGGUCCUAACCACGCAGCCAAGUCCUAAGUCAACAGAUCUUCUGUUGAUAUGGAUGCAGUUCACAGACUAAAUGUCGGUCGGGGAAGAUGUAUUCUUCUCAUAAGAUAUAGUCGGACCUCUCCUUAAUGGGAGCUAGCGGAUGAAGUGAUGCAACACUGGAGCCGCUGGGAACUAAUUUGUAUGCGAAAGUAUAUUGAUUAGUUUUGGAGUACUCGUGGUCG;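 note: selection with 25 µg/mL kanamycin versus none on LB agar overnight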
- condition parameters: 30 °C
reported metric: self-splicing fitness (ln)
In your answer, state the number alone without any accompanying words.

AAAUAGCAAUAUUACGCGAA -1.42
AAGAAGCAAUAUUACGUACU 0.124
CCGGAGCAAUAUUACGUGCG -1.42
UACGAGCAAUAUUACGAUGA -2.05
AGUCAGCAAUAUUACGCACC -0.932
UGGCAGCAAUAUUACGAGAC -3.74
UAUGAGCAAUAUUACGUUCA -1.29
CGGUAGCAAUAUUACGACUC -1.01
CGUGAGCAAUAUUACGAAUC -2.66
AAACAGCAAUAUUACGCUUC -3.6

Task: Specify self-splicing fitness (ln) for ACCGAGCAAUAUUACGAAUG and stop.
Result: -2.51

Task: Specify self-splicing fitness (ln) for UCGCAGCAAUAUUACGGACU and stop.
Result: -2.14

Task: Specify self-splicing fitness (ln) for AGCCAGCAAUAUUACGAUCG and stop.
Result: -3.74

* * *

- experiment: self-splicing fitness, log relative to wild type (ln ratio); higher = more splicing; Tetrahymena group I intron in knt gene, E. coli kanamycin selection, DiMSum; sequences stand for … in CUCUCU…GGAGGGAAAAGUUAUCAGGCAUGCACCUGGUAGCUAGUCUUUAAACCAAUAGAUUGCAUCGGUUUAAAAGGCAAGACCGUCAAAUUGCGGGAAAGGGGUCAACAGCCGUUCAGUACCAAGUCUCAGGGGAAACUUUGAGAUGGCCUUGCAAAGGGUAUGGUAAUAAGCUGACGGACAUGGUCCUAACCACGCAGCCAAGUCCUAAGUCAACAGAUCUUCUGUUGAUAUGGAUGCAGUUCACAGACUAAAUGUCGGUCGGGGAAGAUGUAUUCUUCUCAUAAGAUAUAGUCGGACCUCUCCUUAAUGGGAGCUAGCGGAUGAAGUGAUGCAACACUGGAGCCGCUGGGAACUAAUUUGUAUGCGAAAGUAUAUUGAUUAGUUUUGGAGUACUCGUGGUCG
- condition parameters: 37 °C
reported metric: self-splicing fitness (ln)
In your answer, state the number alone without any accompanying words.

CUUGAGCAAUAUUACGUCGC -1.81
AGAUAGCAAUAUUACGUACA -0.0902

Task: Specify self-splicing fitness (ln) for CUUCAGCAAUAUUACGGAUU and stop.
Result: -1.75

Task: Specify self-splicing fitness (ln) for CCGGAGCAAUAUUACGCCAC and stop.
Result: 0.445
